Reference for the values: the supplement of paper PMC5998384

# System: HeLa Kyoto;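 further: HeLa Kyoto cells synchronized by double thymidine or nocodazole block, proteins quantified by TMT10plex mass spectrometry, three independent biological replicates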
# assay name: melting temperature (median over replicates), in situ; higher = more thermally stable
# condition set: cell cycle stage: mitosis
measured endpoint: melting temperature (°C)
Only the number, expressed in °C, is required.

Check out these entries, answers already filled in.
[Q] Which melting temperature value belongs to MEDPTLYIVERPLPGYPDAEAPEPSSAGAQAAEEPSGAGSEELIKSDQVNGVLVLSLLDKIIGAVDQIQLTQAQLEERQAEMEGAVQSIQGELSKLGKAHATTSNTVSKLLEKVRKVSVNVKTVRGSLERQAGQIKKLEVNEAELLRRRNFKVMIYQDEVKLPAKLSISKSLKESEALPEKEGEELGEGERPEEDAAALELSSDEAVEVEEVIEESRAERIKRSGLRRVDDFKKAFSKEKMEKTKVRTRENLEKTRLKTKENLEKTRHTLEKRMNKLGTRLVPAERREKLKTSRDKLRKSFTPDHVVYARSKTAVYKVPPFTFHVKKIREGQVEVLKATEMVEVGADDDEGGAERGEAGDLRRGSSPDVHALLEITEESDAVLVDKSDSD [PTRF] ?
[A] 52.4

[Q] Which melting temperature value belongs to MGAFLDKPKMEKHNAQGQGNGLRYGLSSMQGWRVEMEDAHTAVIGLPSGLESWSFFAVYDGHAGSQVAKYCCEHLLDHITNNQDFKGSAGAPSVENVKNGIRTGFLEIDEHMRVMSEKKHGADRSGSTAVGVLISPQHTYFINCGDSRGLLCRNRKVHFFTQDHKPSNPLEKERIQNAGGSVMIQRVNGSLAVSRALGDFDYKCVHGKGPTEQLVSPEPEVHDIERSEEDDQFIILACDGIWDVMGNEELCDFVRSRLEVTDDLEKVCNEVVDTCLYKGSRDNMSVILICFPNAPKVSPEAVKKEAELDKYLECRVEEIIKKQGEGVPDLVHVMRTLASENIPSLPPGGELASKRNVIEAVYNRLNPYKNDDTDSTSTDDMW [PPM1A] ?
[A] 52

[Q] Which melting temperature value belongs to MREYKLVVLGSGGVGKSALTVQFVQGIFVEKYDPTIEDSYRKQVEVDCQQCMLEILDTAGTEQFTAMRDLYMKNGQGFALVYSITAQSTFNDLQDLREQILRVKDTEDVPMILVGNKCDLEDERVVGKEQGQNLARQWCNCAFLESSAKSKINVNEIFYDLVRQINRKTPVEKKKPKKKSCLLL [RAP1A] ?
[A] 57.6

[Q] Which melting temperature value belongs to MSGNGNAAATAEENSPKMRVIRVGTRKSQLARIQTDSVVATLKASYPGLQFEIIAMSTTGDKILDTALSKIGEKSLFTKELEHALEKNEVDLVVHSLKDLPTVLPPGFTIGAICKRENPHDAVVFHPKFVGKTLETLPEKSVVGTSSLRRAAQLQRKFPHLEFRSIRGNLNTRLRKLDEQQEFSAIILATAGLQRMGWHNRVGQILHPEECMYAVGQGALGVEVRAKDQDILDLVGVLHDPETLLRCIAERAFLRHLEGGCSVPVAVHTAMKDGQLYLTGGVWSLDGSDSIQETMQATIHVPAQHEDGPEDDPQLVGITARNIPRGPQLAAQNLGISLANLLLSKGAKNILDVARQLNDAH [HMBS] ?
[A] 57.3

[Q] Which melting temperature value belongs to MALVHKLLRGTYFLRKFSKPTSALYPFLGIRFAEYSSSLQKPVASPGKASSQRKTEGDLQGDHQKEVALDITSSEEKPDVSFDKAIRDEAIYHFRLLKDEIVDHWRGPEGHPLHEVLLEQAKVVWQFRGKEDLDKWTVTSDKTIGGRSEVFLKMGKNNQSALLYGTLSSEAPQDGESTRSGYCAMISRIPRGAFERKMSYDWSQFNTLYLRVRGDGRPWMVNIKEDTDFFQRTNQMYSYFMFTRGGPYWQEVKIPFSKFFFSNRGRIRDVQHELPLDKISSIGFTLADKVDGPFFLEIDFIGVFTDPAHTEEFAYENSPELNPRLFK [NDUFAF1] ?
[A] 55.2

[Q] Which melting temperature value belongs to MSLLRSLRVFLVARTGSYPAGSLLRQSPQPRHTFYAGPRLSASASSKELLMKLRRKTGYSFVNCKKALETCGGDLKQAEIWLHKEAQKEGWSKAAKLQGRKTKEGLIGLLQEGNTTVLVEVNCETDFVSRNLKFQLLVQQVALGTMMHCQTLKDQPSAYSKGFLNSSELSGLPAGPDREGSLKDQLALAIGKLGENMILKRAAWVKVPSGFYVGSYVHGAMQSPSLHKLVLGKYGALVICETSEQKTNLEDVGRRLGQHVVGMAPLSVGSLDDEPGGEAETKMLSQPYLLDPSITLGQYVQPQGVSVVDFVRFECGEGEEAAETE [TSFM] ?
[A] 48.9

[Q] Which melting temperature value belongs to MFFWCACCLMVAWRVSASDAEHCPELPPVDNSIFVAKEVEGQILGTYVCIKGYHLVGKKTLFCNASKEWDNTTTECRLGHCPDPVLVNGEFSSSGPVNVSDKITFMCNDHYILKGSNRSQCLEDHTWAPPFPICKSRDCDPPGNPVHGYFEGNNFTLGSTISYYCEDRYYLVGVQEQQCVDGEWSSALPVCKLIQEAPKPECEKALLAFQESKNLCEAMENFMQQLKESGMTMEELKYSLELKKAELKAKLL [C4BPB] ?
[A] 54.8

[Q] Which melting temperature value belongs to MKVLLLKDAKEDDCGQDPYIRELGLYGLEATLIPVLSFEFLSLPSFSEKLSHPEDYGGLIFTSPRAVEAAELCLEQNNKTEVWERSLKEKWNAKSVYVVGNATASLVSKIGLDTEGETCGNAEKLAEYICSRESSALPLLFPCGNLKREILPKALKDKGIAMESITVYQTVAHPGIQGNLNSYYSQQGVPASITFFSPSGLTYSLKHIQELSGDNIDQIKFAAIGPTTARALAAQGLPVSCTAESPTPQALATGIRKALQPHGCC [UROS] ?
[A] 52.4

Turning now to a further sequence:
[Q] Which melting temperature value belongs to MVTEQEVDAIGQTLVDPKQPLQARFRALFTLRGLGGPGAIAWISQAFDDDSALLKHELAYCLGQMQDARAIPMLVDVLQDTRQEPMVRHEAGEALGAIGDPEVLEILKQYSSDPVIEVAETCQLAVRRLEWLQQHGGEPAAGPYLSVDPAPPAEERDVGRLREALLDESRPLFERYRAMFALRNAGGEEAALALAEGLHCGSALFRHEVGYVLGQLQHEAAVPQLAAALARCTENPMVRHECAEALGAIARPACLAALQAHADDPERVVRESCEVALDMYEHETGRAFQYADGLEQLRGAPS [DOHH] ?
[A] 50.6
